System: OVCAR-8
Assay: NCI tumour cell line growth inhibition, 48 h
Calls of active or inactive are those of the source. Cut-off read from the data, not from the text of the source: active = GI50 up to about 1.1 µM and inactive = higher.
Write down one outcome, taken from Y for active, N for inactive

Query block: Please indicate how the test categorized `O=C1OC(c2ccc(Cl)cc2)(c2ccc(Cl)cc2)c2c1ccc1ccccc21` .
Result block: N

Query block: Please indicate how the test categorized `CC(=O)Nc1ccc2cc3c(nc2n1)c1cccnc1n3S(=O)(=O)c1ccccc1` .
Result block: N

Query block: Please indicate how the test categorized `CCn1nc(-c2ccccc2)c2c1N(C)c1ccccc1-n1c(-c3ccccc3)nnc1-2` .
Result block: N

Query block: Please indicate how the test categorized CCCCCCCCCCCCCC(=O)OCC1OC(n2cc(F)c(=O)[nH]c2=O)C(N)C(OC(=O)CCCCCCCCCCCCC)C1O (centres undefined) .
Result block: N

Query block: Please indicate how the test categorized C=CCNC1=C2C[C@@H](C)C[C@H](OC)[C@H](O)[C@@H](C)/C=C(\C)[C@H](OC(N)=O)[C@@H](OC)/C=C\C=C(/C)C(=O)NC(=CC1=O)C2=O [TANESPIMYCIN] .
Result block: Y

Query block: Please indicate how the test categorized `COc1ccc(/N=C/c2ccc(N(CCC#N)S(=O)(=O)c3ccccc3)cc2)cc1` .
Result block: N

Query block: Please indicate how the test categorized C=CC(C)(O)CCC1C(=C)C(O)CC2C(C)(C)CCCC12C (centres undefined) .
Result block: N

Query block: Please indicate how the test categorized CO[C@]12CC(=O)C3(C(C[C@H]4CC5CC[C@H]6C[C@@H](OC(C)=O)CC[C@]6(OC(C)=O)C5C[C@@]43C)C1)C1C[C@H]3[C@@H]4CC[C@H]5C[C@@H](OC(C)=O)CC[C@]5(OC(C)=O)[C@H]4CC[C@]3(C)C12 (some centres undefined) .
Result block: N

Query block: Please indicate how the test categorized `N#CC(=N)c1ncn(-c2ccc(N)cc2)c1N` .
Result block: N

Query block: Please indicate how the test categorized CCOC(=O)c1c(-c2cccc3ccccc23)c(C#N)c(=S)n(C2OC(COC(C)=O)C(OC(C)=O)C(OC(C)=O)C2OC(C)=O)c1C (centres undefined) .
Result block: N

Query block: Please indicate how the test categorized `CC1(C)OC(=O)C(=Cc2ccc(O)cc2)C(=O)O1` .
Result block: N

Query block: Please indicate how the test categorized `COc1cc(C2=NNC(=O)c3ccccc3N2c2nc(-c3cccs3)nc3ccc(Br)cc23)cc(OC)c1OC` .
Result block: N

Query block: Please indicate how the test categorized `C/C=C/C(=O)N1C(=O)OC[C@@H]1c1ccccc1` .
Result block: N

Query block: Please indicate how the test categorized `COc1ccc(CNc2cc(OC)cc(OC)c2)cc1` .
Result block: N

Query block: Please indicate how the test categorized COC(=O)[C@@]12OC[C@]34C([C@@H](O)C1O)[C@@]1(C)CC(=O)C(OC(=O)/C=C(/c5ccccc5)C(F)(F)F)=C(C)C1C[C@H]3OC(=O)[C@H](O)[C@H]42 (some centres undefined) .
Result block: N

Query block: Please indicate how the test categorized `O=C(/C=C1\C[C@H]2C=Nc3ccccc3C(=O)N2C1)NCCCNC(=O)/C=C1\C[C@H]2C=Nc3ccccc3C(=O)N2C1` .
Result block: N

Query block: Please indicate how the test categorized `CO/C=C/C=C(\C#N)C(=O)OC` .
Result block: N

Query block: Please indicate how the test categorized CC(NC(=O)Cc1ccccc1)NC(=O)C(C)C(=O)NCc1ccccc1 (centres undefined) .
Result block: N

Query block: Please indicate how the test categorized `CN(C)CCNC1=CC(=O)c2c(O)ccc(O)c2C1=O` .
Result block: N

Query block: Please indicate how the test categorized `Fc1c(F)c(F)c(CSc2nc3ccccc3[nH]2)c(F)c1F` .
Result block: N

Query block: Please indicate how the test categorized `Cc1c(/N=C\c2ccc(N(CCC#N)CCC#N)cc2)c(=O)n(-c2ccccc2)n1C` .
Result block: N

Query block: Please indicate how the test categorized `C1COCCSC2=C(SCCO1)SC(=C1SC3=C(SCCOCCOCCS3)S1)S2` .
Result block: N

Query block: Please indicate how the test categorized `COc1c(-c2cc(C)c(Cl)c(=O)[nH]2)c(O)c(OC)c2occc12` .
Result block: N

Query block: Please indicate how the test categorized COc1cc2c(cc1OC)C(OC)N(C)c1c-2ccc2cc3c(cc12)OCO3 (centres undefined) .
Result block: N

Query block: Please indicate how the test categorized COC1OC(C)C(OCc2ccccc2)C(OS(=O)(=O)c2ccc(C)cc2)C1OS(=O)(=O)c1ccc(C)cc1 (centres undefined) .
Result block: N

Query block: Please indicate how the test categorized CC1=NN(C(=O)CC(=O)NC(=O)CC(=O)Nc2ccccc2F)C(=O)C1/N=N/c1ccc([N+](=O)[O-])cc1 (centres undefined) .
Result block: N

Query block: Please indicate how the test categorized `CC(C)=CCC[C@H](C)[C@H]1CC[C@@H](C)c2cc(O)c(C)cc21` .
Result block: N

Query block: Please indicate how the test categorized `O=C(O)\C=C/C=C/C=C/C=C/C(=O)O` .
Result block: N

Query block: Please indicate how the test categorized COC(=O)[C@@H](C)[C@H]1CC[C@@](C)(CCC2=C(C)CC3C=C(C)CCC3C2(C)C)OO1 (some centres undefined) .
Result block: N

Query block: Please indicate how the test categorized CCOC1=C2N=C(Cc3ccc(F)cc3)NC2C(=O)c2ccccc21 (centres undefined) .
Result block: N

Query block: Please indicate how the test categorized Cc1nc2c(Br)cc(Br)cc2c(=O)n1-c1ccccc1NC1OC(CO)C(O)C(O)C1O (centres undefined) .
Result block: N

Query block: Please indicate how the test categorized C[C@]12CCC(=O)C=C1CC[C@@H]1[C@@H]2[C@@H](O)C[C@@]2(C)[C@H]1CC[C@]2(O)C(=O)CO [HYDROCORTISONE] .
Result block: N

Query block: Please indicate how the test categorized CC(=O)O[C@H]1C(=O)[C@@]2(C)C(C(OC(=O)c3ccccc3)C3[C@@H](O)C(OC(=O)[C@@H](O)[C@H](NC(=O)c4ccccc4)c4ccc(C(F)(F)F)cc4)C(C)=C1C3(C)C)[C@]1(OC(C)=O)CO[C@@H]1C[C@@H]2O (some centres undefined) .
Result block: N

Query block: Please indicate how the test categorized CC(=O)N(C(C)=O)C1=C2c3ccccc3N(S(=O)(=O)c3ccccc3)C2n2c(=O)n(-c3ccccc3)c(=O)n2C1 (centres undefined) .
Result block: N

Source listed as ChEMBL document CHEMBL1201862.
